Recorded apparent KD of MS2 coat protein, one value per entry.
Test system: MS2 coat protein
assay-text: apparent KD of MS2 coat protein; designed switch direction (-1 OFF switch, 1 ON switch): -1; higher = weaker reporter binding
assay-conditions: input ligand: none
Number only, in nM; omit the unit.

Examples from the recorded data:
GGAUCUACUGAGGAUAUUACAUCACCCGAUUGAUAAGAAGGCAGAACAUGAGGAUCACCCAUGUGGGUAGCCAA [Polaris] (Eterna round: R97, puzzle: Exclusion 6); 21
GAUUAACAUGAGGAUCACCCAUGUGAGGAUAUUGACUUGCUCACUUUCCGAUUCGAGUCGAGAAGGCGCAUCUU [1986#117] (Eterna round: R97, puzzle: Exclusion 1); 21.9

Incoming: Request: apparent KD of MS2 coat protein, test system MS2 coat protein, entry UUUGCAAGCUAUAGAUCCCACAUGAGGAUCACCCAUGUUGCUGCCGUGAGGUAGCAUUUAACUAUUGCUCGUCUUAU [JL TOV1 3.51] (Eterna round: R97, puzzle: Sensor, turn-off variant 1)
Outgoing: 245
